Data credit: PubChem BioAssay AID440

# tested target: fMet-Leu-Phe receptor (Homo sapiens) (UniProt P21462)
# Sequence (P21462 whole entry, looked up): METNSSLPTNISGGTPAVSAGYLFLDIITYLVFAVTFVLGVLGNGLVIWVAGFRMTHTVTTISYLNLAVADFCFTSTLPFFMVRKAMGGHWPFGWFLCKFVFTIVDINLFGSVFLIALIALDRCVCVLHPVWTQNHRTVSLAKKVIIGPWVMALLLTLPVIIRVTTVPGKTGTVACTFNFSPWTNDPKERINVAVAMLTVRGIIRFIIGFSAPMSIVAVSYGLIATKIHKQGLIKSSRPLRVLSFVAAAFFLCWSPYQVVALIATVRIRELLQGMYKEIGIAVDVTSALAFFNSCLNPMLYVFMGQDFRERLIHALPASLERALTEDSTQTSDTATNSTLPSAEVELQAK
# test name: human FPR ligands by binding competition, primary screen, cell-based, FPRL1 counter-screen, flow cytometry (AID 440)
# condition details: FPR-expressing cells, fluorescent ligand binding, concentration not given here
The whole screen tested about 24,000 compounds, of which about 180 (0.75%) were called active. No stated cut-off is given here; in the data, active means inhibition above about 30%; inconclusive means no clear call, values can overlap the other calls; inactive means below that. For the sample, actives were picked, then their nearest neighbours and some compounds at random.
I would appreciate it if you answered using one of these outcomes: Y for active, N for inactive

Query: Per the records of this test, what outcome belongs to "CCOC(=O)N1CCN(C(=O)c2cc3c(-c4ccc(Cl)cc4)nn(C)c3s2)CC1" ?
Response: N

Query: Per the records of this test, what outcome belongs to O=C(CN1C(=O)C2C3C=CC(C3)C2C1=O)NCC1COc2ccccc2O1 (stereo unspecified) ?
Response: N

Query: Per the records of this test, what outcome belongs to "O=C(O)Cc1ccc(-c2ccccc2)cc1" ?
Response: N

Query: Per the records of this test, what outcome belongs to "CCOC(=O)c1sc(=S)n(-c2cccc(OC)c2)c1N" ?
Response: N

Query: Per the records of this test, what outcome belongs to "Cc1ccc2cccc(O)c2[n+]1[O-]" ?
Response: N

Query: Per the records of this test, what outcome belongs to "Cc1ccc(NC(=O)CN(C)S(=O)(=O)c2cnc[nH]2)cc1C" ?
Response: N

Query: Per the records of this test, what outcome belongs to "Cc1cc(C)nc(-n2nc(C)cc2NC(=O)c2ccc(Br)o2)n1" ?
Response: N

Query: Per the records of this test, what outcome belongs to "COc1ccccc1C(=O)N1CCN=C1SCc1cccnc1" ?
Response: N

Query: Per the records of this test, what outcome belongs to Cc1sc(NC(=O)C2C3CCC(O3)C2C(=O)O)c(C(=O)OC(C)C)c1-c1ccc(Cl)cc1 (stereo unspecified) ?
Response: N

Query: Per the records of this test, what outcome belongs to "COc1ccc(C(=O)Nc2nncs2)c(OC)c1" ?
Response: N

Query: Per the records of this test, what outcome belongs to COCCCN1C(=O)C(=O)/C(=C(/O)c2ccc3c(c2)CC(C)O3)C1c1cccnc1 (stereo unspecified) ?
Response: Y

Query: Per the records of this test, what outcome belongs to "COCc1cc(C)nc(SCC(=O)Nc2cccc(C)c2)c1C#N" ?
Response: N

Query: Per the records of this test, what outcome belongs to "COCCNC(=O)Cn1cc2c(n1)CCCCC2" ?
Response: N

Query: Per the records of this test, what outcome belongs to "COc1ccc(C(=O)NC(=O)CSc2nnc(-c3ccco3)n2-c2ccccc2)cc1" ?
Response: N

Query: Per the records of this test, what outcome belongs to "S=C1SCN(CCN2CCOCC2)CN1Cc1ccccc1" ?
Response: N

Query: Per the records of this test, what outcome belongs to "Cc1cc(Nc2ccc(Br)cc2F)n2ncnc2n1" ?
Response: N

Query: Per the records of this test, what outcome belongs to "Cc1nc(C)c(C(=O)Nc2cccc(C)c2C)o1" ?
Response: N

Query: Per the records of this test, what outcome belongs to "CCn1ncc(Br)c1C(=O)Nc1cc(C)ccc1F" ?
Response: N

Query: Per the records of this test, what outcome belongs to "O=C(CN1C(=O)COc2ccccc21)Nc1ccc(F)cc1" ?
Response: N

Query: Per the records of this test, what outcome belongs to "O=C(CCN1C(=O)c2ccccc2C1=O)NCCN1CCOCC1" ?
Response: N

Query: Per the records of this test, what outcome belongs to "Clc1ccc(Cc2nn3c(-c4ccncc4)nnc3s2)cc1" ?
Response: Y

Query: Per the records of this test, what outcome belongs to "CC(=O)Nc1cc(C(=O)O)ccc1S(=O)(=O)c1ccc(Cl)cc1" ?
Response: N

Query: Per the records of this test, what outcome belongs to O=C(Cn1c(=O)n(Cc2ccco2)c(=O)c2ccccc21)NCC1CCCO1 (stereo unspecified) ?
Response: N

Query: Per the records of this test, what outcome belongs to Cc1cc(N2C(=O)C(=O)/C(=C(/O)c3ccccc3)C2c2cccc(Br)c2)no1 (stereo unspecified) ?
Response: N

Query: Per the records of this test, what outcome belongs to O=C1C(=O)N(CCN2CCOCC2)C(c2ccccn2)/C1=C(/O)c1ccc(Cl)cc1 (stereo unspecified) ?
Response: N

Query: Per the records of this test, what outcome belongs to "c1ccc(COc2nsnc2N2CCOCC2)cc1" ?
Response: N

Query: Per the records of this test, what outcome belongs to CC(C)OC(=O)c1cc(NC(=O)C2C3CCC(O3)C2C(=O)O)cc(C(=O)OC(C)C)c1 (stereo unspecified) ?
Response: Y

Query: Per the records of this test, what outcome belongs to Cc1cc(C)c(C#N)c(SCS(=O)c2ccc(C(C)(C)C)cc2)n1 (stereo unspecified) ?
Response: N

Query: Per the records of this test, what outcome belongs to "CCOC(=O)Cn1c(CN(Cc2ccccc2)Cc2ccccc2)nc2c1c(=O)[nH]c(=O)n2C" ?
Response: N

Query: Per the records of this test, what outcome belongs to "CCOC(=O)c1cc(NC(=O)SCC(=O)O)c(C)nc1C" ?
Response: N

Query: Per the records of this test, what outcome belongs to CCCC(NC(=O)c1ccccc1)c1nc2ccccc2n1Cc1ccc(C(=O)OC)o1 (stereo unspecified) ?
Response: N

Query: Per the records of this test, what outcome belongs to CCOc1cccc(/C(O)=C2/C(=O)C(=O)N(CCOC)C2c2ccncc2)c1 (stereo unspecified) ?
Response: N

Query: Per the records of this test, what outcome belongs to COc1ccccc1C1/C(=C(/O)c2ccc(C)cc2)C(=O)C(=O)N1Cc1ccco1 (stereo unspecified) ?
Response: N

Query: Per the records of this test, what outcome belongs to "COc1c(F)c(F)c(C(=O)O)c(Nc2ccccc2C)c1F" ?
Response: N

Query: Per the records of this test, what outcome belongs to O=C(Nc1nccs1)C1CCCN1S(=O)(=O)c1cccc2cccnc12 (stereo unspecified) ?
Response: N

Query: Per the records of this test, what outcome belongs to Cc1ccc(C2CC(=O)NC(SCC(=O)OCc3ccccc3)=C2C#N)o1 (stereo unspecified) ?
Response: N

Query: Per the records of this test, what outcome belongs to "COc1ccc2c(CC(=O)Nc3nnc(C4CC4)s3)coc2c1" ?
Response: N

Query: Per the records of this test, what outcome belongs to "CCOC(=O)c1sc(=S)n2c1[nH]c(=O)c1ccc(C(=O)OC)cc12" ?
Response: Y

Query: Per the records of this test, what outcome belongs to "CCC(C(=O)Nc1ncccn1)(C(F)(F)F)C(F)(F)F" ?
Response: N

Query: Per the records of this test, what outcome belongs to "O=C(Nc1cccnc1)c1noc2c1CCCCC2" ?
Response: N

Query: Per the records of this test, what outcome belongs to "O=C1c2ccncc2C(=O)N1C1CCCCC1" ?
Response: N

Query: Per the records of this test, what outcome belongs to "CCCC(=O)Nc1nnc(CC(=O)OCC)s1" ?
Response: N

Query: Per the records of this test, what outcome belongs to "Cc1cnc(C(=O)OCC(=O)Nc2ccc(Cl)cc2Cl)cn1" ?
Response: N

Query: Per the records of this test, what outcome belongs to COc1ccc(/C(O)=C2/C(=O)C(=O)N(CC3CCCO3)C2c2ccc(OC)c(OC)c2)cc1 (stereo unspecified) ?
Response: N

Query: Per the records of this test, what outcome belongs to "CCCCc1nc2c(=O)[nH]c3ccccc3c2o1" ?
Response: N

Query: Per the records of this test, what outcome belongs to "Nc1ccc(-n2nncc2-c2ccco2)cc1" ?
Response: N
